measured-attribute: melting point

CC(C)c1cc(C(=O)Nc2ccc(C(=O)O)nc2)oc1C(C)C :: 106 to 107.5 °C
CC(C)c1cc(C(=O)Nc2ccc(C(=O)O)cn2)oc1C(C)C :: 278 to 279 °C
CC(C)c1cc(C(=O)Nc2ccc(CCC(=O)O)cc2)oc1C(C)C :: 139 to 141 °C
CC(C)c1cc(C(=O)Nc2ccc(C(=O)O)nc2)sc1C(C)C :: 216 to 217 °C
CC(C)c1cc(C(=O)Nc2ccc(C(=O)O)cn2)sc1C(C)C :: > 300 °C
CC(C)c1cc(C(=O)Nc2ccc(OCC(=O)O)cc2)oc1C(C)C :: 83 to 85 °C
CC(C)c1cc(C(=O)Nc2cc(F)c(C(=O)O)c(F)c2)sc1C(C)C :: 218 to 219 °C
CC(C)c1[nH]c(C(=O)Nc2ccc(C(=O)O)cc2)c(C(C)C)c1C(C)C :: > 300 °C
CC(C)c1cc(C(=O)Nc2ccc3[nH]c(C(=O)O)cc3c2)oc1C(C)C :: 240 to 243 °C
CC(C)c1cc(C(=O)Nc2ccc(C(=O)O)c(Cl)c2)oc1C(C)C :: 152 to 153 °C
CC(C)c1cc(C(=O)Nc2ccc(C(=O)O)c(F)c2)sc1C(C)C :: 133 to 135 °C
CC(C)c1cc(C(=O)Nc2cccc(C(=O)O)c2)oc1C(C)C :: 243.5 to 245 °C
COc1cc(NC(=O)c2cc(C(C)C)c(C(C)C)s2)ccc1C(=O)O :: 213 to 214 °C
CC(C)c1cc(C(=O)Nc2ccc(C(=O)O)cc2)[nH]c1C(C)C :: 230 to 230.5 °C
CC(C)c1cc(C(=O)Nc2ccc(C(=O)O)cc2)oc1C(C)C :: 120 to 121 °C
CC(C)c1cc(/C=C/C(=O)N(C)c2ccc(C(=O)O)cc2)oc1C(C)C :: 213 to 214 °C

* * *

Listing: melting point of selected compounds
measured-attribute: melting point

CC(C)c1cc(C(=O)Nc2ccc(C(=O)O)cc2)sc1C(C)C [Compound 15] :: 219 to 221 °C
CC(C)c1cc(/C=C/C(=O)N(C)c2cccc(C(=O)O)c2)oc1C(C)C [Compound 29] :: 187.5 to 189 °C
CC(C)c1cc(C(=O)Nc2ccc(CC(=O)O)cc2)oc1C(C)C [Compound 4] :: 154 to 156 °C
C/C(=C\C(=O)Nc1ccc(C(=O)O)cc1)c1cc(C(C)C)c(C(C)C)o1 [Compound 11] :: 232.5 to 235 °C
CC(C)c1cc(C(=O)Nc2ccc(C(=O)O)c(O)c2)oc1C(C)C [Compound 24] :: 179 to 180 °C
